Data origin, for the record: PubChem BioAssay (EPA / NIEHS)

# assay-notes: CCTE_Simmons_CellTiterGLO_HEK293T: Viability Assessment in CCTE's Assays for Thyroperoxidase (TPO) Inhibition, Simmons Lab (AID 2283665);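 on AC50: cells exposed to compound for 24 h before readout; actives reduce ATP signal below DMSO vehicle meaning cytotoxicity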
Records with an inconclusive call do not appear. Activity calls are given as the source filed them. How the source made its calls: active means hit-call score of the fitted dose curve at least 0.9, where 1 is the maximum; inconclusive means response in the unintended direction; inactive means score below 0.9.
observation-type: AC50

- CCCCCCCCCCCCCCOS(=O)(=O)O: 22.3 µM (active)
- S=c1[nH]c2ccccc2s1: inactive
- O=C1c2c(O)cccc2Cc2cccc(O)c21: inactive
- Cc1cc(Cc2ccc(N)c(C)c2)ccc1N: inactive
- CC1(C)C(=O)NC(=O)N1CO: inactive
- C/C=C/c1ccc(OC)cc1: inactive
- Cc1occc(=O)c1O: inactive
- CC(C)NCC(O)c1ccc(O)c(O)c1 (stereo not given): inactive
- Oc1ccc(O)cc1: 35.4 µM (active)
- O=C1OC(c2ccc(O)cc2)(c2ccc(O)cc2)c2ccccc21: 43.8 µM (active)

---

# Read-out: E-selectin (Homo sapiens)
# assay-notes: BSK_SAg_Eselectin: BioMAP Diversity Plus: SAg Assay for Eselectin Biomarker Activity (AID 2283091)
# conditions-used: primary human HUVEC with PBMC; actives raise or lower the signal
Active and inactive are the calls of the source. The calls were made as follows: active = hit-call score of the fitted dose curve at least 0.9, where 1 is the maximum; inactive = score below 0.9.
Labels: 1 (yes) for active, 0 (no) for inactive

* O=C1c2c(O)cccc2Cc2cccc(O)c21 | 0 (no)
* Nc1nc(Cl)nc2c1ncn2[C@H]1C[C@H](O)[C@@H](CO)O1 | 1 (yes)
* Cn1cnc2c1c(=O)[nH]c(=O)n2C | 0 (no)
* CC(=O)O | 0 (no)
* CCCCOC(=O)CCCCC(=O)OCCCC | 0 (no)
* CCCC[C@H]1CN(CC2CCOCC2)C(=O)OC12CCN(C1(C)CCN(C(=O)c3c(C)ncnc3C)CC1)CC2 | 0 (no)
* CC(C)NCC(O)c1ccc(O)c(O)c1 (stereo not drawn) | 0 (no)
* CCc1nc(N)nc(N)c1-c1ccc(Cl)cc1 | 0 (no)
* CCCCc1nc2cccnc2n1Cc1ccc(-c2ccccc2-c2nnn[nH]2)cc1 | 0 (no)
* CCCCCCCCCC[N+](C)(C)[O-] | 0 (no)
* CCCCC(CC)CO (stereo not drawn) | 0 (no)
* C/C=C/C=C/C(=O)O | 0 (no)
* CCN(CC)CCOc1ccc(C(=C(Cl)c2ccccc2)c2ccccc2)cc1 | 1 (yes)

---

# system-tested: guinea pig Opioid, Kappa 1 Receptor (OpiateK), OPRK1 (gene 100135587) (UniProt P41144)
# Sequence (P41144 whole entry, looked up): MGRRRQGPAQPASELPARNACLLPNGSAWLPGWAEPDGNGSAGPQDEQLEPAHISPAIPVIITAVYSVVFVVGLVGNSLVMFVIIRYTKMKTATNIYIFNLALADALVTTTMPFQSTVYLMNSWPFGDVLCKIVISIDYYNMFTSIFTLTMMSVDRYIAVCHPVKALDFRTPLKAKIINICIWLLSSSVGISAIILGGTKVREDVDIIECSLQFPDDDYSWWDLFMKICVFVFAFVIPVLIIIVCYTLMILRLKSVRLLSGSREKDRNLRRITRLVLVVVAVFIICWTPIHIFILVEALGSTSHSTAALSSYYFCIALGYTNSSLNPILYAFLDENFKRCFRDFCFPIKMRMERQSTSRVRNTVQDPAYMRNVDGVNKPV
# assay-notes: NVS_GPCR_gOpiateK: NovaScreen (NVS) G Protein-Coupled Receptor Assay for guinea pig Opioid, Kappa 1 Receptor (OpiateK) (AID 2283252);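 further: radioligand displacement from kappa opioid receptor in guinea pig cerebellar membranes; active means reduced radioligand binding relative to DMSO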
Records with an inconclusive call do not appear. Activity calls are given as the source filed them. Rule for the calls: active = hit-call score of the fitted dose curve at least 0.9, where 1 is the maximum; inconclusive = response in the unintended direction; inactive = score below 0.9.
Labels: active, inactive

* O=C(N[C@@H](c1ccccc1)[C@@H]1CCCCN1)c1cccc(C(F)(F)F)c1Cl | active
* CN(C)CCCN1c2ccccc2Sc2ccc(Cl)cc21 | active
* CN(C)C(=O)NC1(c2ccccc2)CCN(CC[C@@]2(c3ccc(F)c(F)c3)CN(C(=O)c3ccccc3)CCO2)CC1 | active
* NC(=Nc1ccccc1)Nc1ccccc1 | active
* COc1ccc(OC(F)(F)F)cc1CN[C@H]1CCCN[C@H]1c1ccccc1 | active
* O=C1OC(c2ccc(O)cc2)(c2ccc(O)cc2)c2ccccc21 | active
* CSc1ccc(Oc2ccc(S(N)(=O)=O)cc2CN(C)C)cc1C | active
* O=Cc1ccccc1C=O | active
* CCCCc1nc2cccnc2n1Cc1ccc(-c2ccccc2-c2nnn[nH]2)cc1 | active
* CC(C)(O)c1ccc(CNC(=O)c2cccnc2Oc2ccc(F)cc2)cc1 | inactive
* O=C(O)c1[nH]n(-c2ccc(S(=O)(=O)O)cc2)c(=O)c1N=Nc1ccc(S(=O)(=O)O)cc1 | active
